System: phosphorylation level of intracellular protein kinase (ERK) in MOLM13 cells
Assay: Phosphorylated protein kinase (p-ERK) cell experiment (AlphaLISA)
Format: cell-based
Conditions: Homo sapiens, MOLM-13; MOLM13 cells, Table 4; read-out: p-ERK IC50
Field 'label' (enum: fulfilled / not fulfilled). Set to fulfilled when IC50 is strictly under 60 nM; else not fulfilled.

Would you please look over these solved cases?
[[record]]
compound = "C[C@@H]1OCC2(CCN(c3ncc(Sc4cccc(Cl)c4Cl)c4nccn34)CC2)[C@@H]1N"
assay_system = "phosphorylation level of intracellular protein kinase (ERK) in MOLM13 cells"
assigned_category = "not fulfilled"

[[record]]
compound = "Nc1cc(Sc2cnc(N3CCC4(CCC[C@H]4N)CC3)n3cnnc23)c(Cl)c(Cl)n1"
assay_system = "phosphorylation level of intracellular protein kinase (ERK) in MOLM13 cells"
assigned_category = "not fulfilled"

[[record]]
compound = "C[C@@H]1OCC2(CCN(c3ncc(Sc4cccc(Cl)c4Cl)c4nncn34)CC2)[C@@H]1N"
assay_system = "phosphorylation level of intracellular protein kinase (ERK) in MOLM13 cells"
assigned_category = "not fulfilled"

[[record]]
compound = "CC1C[C@@H](N)C2(CCN(c3ncc(Sc4cccc(Cl)c4Cl)c4nncn34)CC2)C1 (stereo partly shown)"
assay_system = "phosphorylation level of intracellular protein kinase (ERK) in MOLM13 cells"
assigned_category = "not fulfilled"

[[record]]
compound = "Nc1cc(Sc2cnc(N3CCC4(CC3)COC[C@H]4N)n3ccnc23)c(Cl)c(Cl)n1"
assay_system = "phosphorylation level of intracellular protein kinase (ERK) in MOLM13 cells"
assigned_category = "fulfilled"

[[record]]
compound = "Nc1cc(Sc2cnc(N3CCC4(CC3)CC(F)(F)C[C@H]4N)n3ccnc23)c(Cl)c(Cl)n1"
assay_system = "phosphorylation level of intracellular protein kinase (ERK) in MOLM13 cells"
assigned_category = "not fulfilled"


Ask: Determine if Cc1nccc(Sc2cnc(N3CCC4(CC3)CO[C@@H](C)[C@H]4N)n3ccnc23)c1Cl shows IC50 strictly lower than 60 nM.
Result: fulfilled

Ask: Also need Nc1nccc(Sc2cnc(N3CCC4(CCC[C@H]4N)CC3)n3ccnc23)c1Cl , thanks.
Result: not fulfilled

Ask: Also need C[C@@H]1OCC2(CCN(c3ncc(Sc4cc(N)nc(Cl)c4Cl)c4nccn34)CC2)[C@@H]1N , thanks.
Result: fulfilled

Ask: Also need CC1C[C@@H](N)C2(CCN(c3ncc(Sc4ccnc(Cl)c4Cl)c4nccn34)CC2)C1 (stereo partly shown) , thanks.
Result: fulfilled

Ask: Also need C[C@@H]1OCC2(CCN(c3ncc(Sc4ccnc(Cl)c4Cl)c4nccn34)CC2)[C@@H]1N , thanks.
Result: fulfilled

Ask: Also need Cc1nc(N)cc(Sc2cnc(N3CCC4(CC3)CC(F)(F)C[C@H]4N)n3ccnc23)c1Cl , thanks.
Result: not fulfilled

Ask: Also need CC1(CN)CCN(c2ncc(Sc3cccc(Cl)c3Cl)c3nncn23)CC1 , thanks.
Result: not fulfilled

Ask: Also need N[C@@H]1CCCC12CCN(c1ncc(Sc3ccnc(Cl)c3Cl)c3nccn13)CC2 , thanks.
Result: not fulfilled

Ask: Also need N[C@@H]1CCCC12CCN(c1ncc(Sc3ccccc3Cl)c3nncn13)CC2 , thanks.
Result: not fulfilled

Ask: Also need N[C@@H]1CCCC12CCN(c1ncc(Sc3cccc4ccccc34)c3nccn13)CC2 , thanks.
Result: not fulfilled

Ask: Also need Nc1cc(Sc2cnc(N3CCC4(CCC[C@H]4N)CC3)n3ccnc23)c(Cl)c(Cl)n1 , thanks.
Result: fulfilled

Ask: Also need N[C@@H]1CCCC12CCN(c1ncc(Sc3ccnc4ccccc34)c3nccn13)CC2 , thanks.
Result: fulfilled

* * *

System: MOLM-13 cells
Assay: MOLM-13 cell proliferation experiment
Assay type: cell-based
Conditions: Homo sapiens, MOLM-13, 72 h, MOLM-13 cell proliferation, 3 days, Tables 3.1 and 3.2; read-out: IC50
List of IC50 values.

Ask: Form entry - test system: MOLM-13 cells; read-out: IC50; compound: COc1ccccc1Sc1cnc(N2CCC3(CCC[C@H]3N)CC2)n2cnnc12
Result: 100 to 1000 nM

Ask: Also need COC(=O)c1ccccc1Sc1cnc(N2CCC3(CCC[C@H]3N)CC2)n2ccnc12 , thanks.
Result: 100 to 1000 nM

Ask: Also need CC(C)c1ccccc1Sc1cnc(N2CCC3(CCC[C@H]3N)CC2)n2cnnc12 , thanks.
Result: 1000 to 10000 nM

Ask: Also need N[C@@H]1CCCC12CCN(c1ncc(Sc3cccc4ccccc34)c3nncn13)CC2 , thanks.
Result: 100 to 1000 nM

Ask: Also need NC1CCCN(c2ncc(Sc3cccc(Cl)c3Cl)c3ncnn23)CC1 (stereo not shown) , thanks.
Result: 1000 to 10000 nM

* * *

Target: SHP2^E76A protein (Homo sapiens (Human), UniProt Q06124, E76A)
Sequence (Q06124 whole entry E76A): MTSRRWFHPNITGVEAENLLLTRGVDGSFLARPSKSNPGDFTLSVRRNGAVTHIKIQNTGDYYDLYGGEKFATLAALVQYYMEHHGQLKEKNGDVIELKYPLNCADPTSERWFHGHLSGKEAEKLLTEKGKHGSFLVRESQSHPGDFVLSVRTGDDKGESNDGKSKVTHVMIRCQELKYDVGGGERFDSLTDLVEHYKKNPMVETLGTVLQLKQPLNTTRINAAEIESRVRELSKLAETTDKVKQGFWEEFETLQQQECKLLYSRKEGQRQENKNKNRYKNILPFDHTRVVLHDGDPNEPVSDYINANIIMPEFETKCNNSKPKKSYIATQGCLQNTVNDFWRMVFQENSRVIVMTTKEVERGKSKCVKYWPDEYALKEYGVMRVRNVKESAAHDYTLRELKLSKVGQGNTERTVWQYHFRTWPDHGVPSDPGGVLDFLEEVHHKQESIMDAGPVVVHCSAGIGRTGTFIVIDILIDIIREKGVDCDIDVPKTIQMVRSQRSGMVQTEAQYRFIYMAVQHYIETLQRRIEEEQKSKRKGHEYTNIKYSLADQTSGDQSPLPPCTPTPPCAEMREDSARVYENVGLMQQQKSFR
Test: SHP2 enzyme activity inhibition experiment
Assay type: biochemical
Conditions: SHP2 enzyme activity, Tables 1.1 and 1.2; read-out: IC50
Property Measured: IC50

Solved entries:
[[record]]
query_smiles = "C=CC(=O)Nc1cccc(Sc2cnc(N3CCC4(CCC[C@H]4N)CC3)n3ccnc23)c1Cl"
assay_system = "SHP2^E76A protein (Homo sapiens (Human), UniProt Q06124, E76A)"
property_measured = "IC50"
obs_value = "100 to 1000 nM"

[[record]]
query_smiles = "Nc1nccc(Sc2cnc(N3CCC4(CCC[C@H]4N)CC3)n3ccnc23)c1Cl"
assay_system = "SHP2^E76A protein (Homo sapiens (Human), UniProt Q06124, E76A)"
property_measured = "IC50"
obs_value = "< 100 nM"


Ask: Data request, read-out IC50, for N[C@@H]1CCCC12CCN(c1ncc(Sc3ccccc3)c3nncn13)CC2
Result: 1000 to 10000 nM

* * *

List of pIC50 values.
Biological target: SHP2^E76A protein (Homo sapiens (Human), UniProt Q06124, E76A)
Assay: SHP2 enzyme activity inhibition experiment
Format: biochemical
Conditions: SHP2 enzyme activity, Tables 1.1 and 1.2; read-out: IC50
pIC50: −log10 of the molar value.

Ask: Data request, read-out pIC50, for N[C@@H]1COCC12CCN(c1ncc(Sc3cccc(Cl)c3Cl)c3nncn13)CC2
Result: > 7.00

* * *

List of pIC50 values.
Target: SHP2^E76A protein (Homo sapiens (Human), UniProt Q06124, E76A)
Assay: SHP2 enzyme activity inhibition experiment
Format: biochemical
Conditions: Table 4; read-out: SHP2 enzyme activity IC50
Scale for pIC50: -log10 of concentration given in mol/L; no unit attached.

Solved entries:
[[record]]
molecule = "Cc1nc(N)cc(Sc2cnc(N3CCC4(CC3)CO[C@@H](C)[C@H]4N)n3ccnc23)c1Cl"
obs_value = 7.80

[[record]]
molecule = "COc1ccccc1Sc1cnc(N2CCC3(CCC[C@H]3N)CC2)n2ccnc12"
obs_value = 7.08

[[record]]
molecule = "Nc1nccc(Sc2cnc(N3CCC4(CCC[C@H]4N)CC3)n3ccnc23)c1Cl"
obs_value = 7.70

[[record]]
molecule = "N[C@@H]1CC(O)CC12CCN(c1ncc(Sc3cccc(Cl)c3Cl)c3nccn13)CC2 (stereo partly shown)"
obs_value = 8.05

[[record]]
molecule = "Cc1nc(N)cc(Sc2cnc(N3CCC4(CCC[C@H]4N)CC3)n3ccnc23)c1Cl"
obs_value = 7.77


Ask: Data request, read-out pIC50, for N[C@@H]1COCC12CCN(c1ncc(Sc3cccc(Cl)c3Cl)c3nncn13)CC2
Result: 7.70

Ask: Also need Nc1cccc(Sc2cnc(N3CCC4(CCC[C@H]4N)CC3)n3cnnc23)c1Cl , thanks.
Result: 7.60

* * *

Target: SHP2^E76A protein (Homo sapiens (Human), UniProt Q06124, E76A)
Assay: SHP2 enzyme activity inhibition experiment
Format: biochemical
Settings: Table 4; read-out: SHP2 enzyme activity IC50
Field 'label' (enum: met / not met). Set to met when IC50 is strictly under 0.02 µM; else not met.

Would you please look over these solved cases?
[[record]]
molecule = "Nc1cc(Sc2cnc(N3CCC4(CC3)CC(F)(F)C[C@H]4N)n3ccnc23)c(Cl)c(Cl)n1"
assay_system = "SHP2^E76A protein (Homo sapiens (Human), UniProt Q06124, E76A)"
assigned_category = "not met"

[[record]]
molecule = "N[C@@H]1CCCC12CCN(c1ncc(Sc3ccncc3Cl)c3nncn13)CC2"
assay_system = "SHP2^E76A protein (Homo sapiens (Human), UniProt Q06124, E76A)"
assigned_category = "not met"

[[record]]
molecule = "C[C@@H]1OCC2(CCN(c3ncc(Sc4cccc(Cl)c4Cl)c4nncn34)CC2)[C@@H]1N"
assay_system = "SHP2^E76A protein (Homo sapiens (Human), UniProt Q06124, E76A)"
assigned_category = "met"

[[record]]
molecule = "CC1C[C@@H](N)C2(CCN(c3ncc(Sc4cccc(Cl)c4Cl)c4nncn34)CC2)C1 (stereo partly drawn)"
assay_system = "SHP2^E76A protein (Homo sapiens (Human), UniProt Q06124, E76A)"
assigned_category = "met"

[[record]]
molecule = "C[C@@H]1OCC2(CCN(c3ncc(Sc4ccnc(N)c4Cl)c4nncn34)CC2)[C@@H]1N"
assay_system = "SHP2^E76A protein (Homo sapiens (Human), UniProt Q06124, E76A)"
assigned_category = "met"

[[record]]
molecule = "Nc1cc(Sc2cnc(N3CCC4(CC3)COC[C@H]4N)n3ccnc23)c(Cl)c(Cl)n1"
assay_system = "SHP2^E76A protein (Homo sapiens (Human), UniProt Q06124, E76A)"
assigned_category = "met"


Ask: Determine if Nc1cc(Sc2cnc(N3CCC4(CCC[C@H]4N)CC3)n3ccnc23)c(Cl)c(Cl)n1 shows IC50 strictly lower than 0.02 µM.
Result: met

Ask: Also need Cc1nccc(Sc2cnc(N3CCC4(CC3)CO[C@@H](C)[C@H]4N)n3cnnc23)c1Cl , thanks.
Result: met

Ask: Also need Nc1cc(Sc2cnc(N3CCC4(CCC[C@H]4N)CC3)n3ccnc23)c(Cl)cn1 , thanks.
Result: not met
